target: HLA-DR DRB1*0301 (human); assay: radioligand inhibition, purified HLA-DR
pIC50: −log10 of the molar value.
assay readout: pIC50

In [3]: df
Out[3]:
                            binder  result_number
0  EELLQMELLLVNKLK [Cyclin D1.135]           5.47
